- Tested on: Bacillus cereus
- Experiment notes: Antibacterial activity against Bacillus cereus MTCC 430 after 24 hrs
- Format: functional
- Test parameters: MTCC 430, 24 h
For each record, write down the corresponding MIC.

Just so you know, measured MIC for CC(=O)NC[C@H]1CN(c2ccc(N3CCN(C(=O)C4CC(c5ccco5)=NO4)CC3)c(F)c2)C(=O)O1 (mixture of isomers) came out at 1.56 µM

Entry CC(=O)NC[C@H]1CN(c2ccc(N3CCN(C(=O)C4CC(c5ccccn5)=NO4)CC3)c(F)c2)C(=O)O1 (mixture of isomers) ; MIC = 0.765 µM

Memo: CC(=O)NC[C@H]1CN(c2ccc(N3CCN(C(=O)C4CC(c5ccc6c(c5)OCO6)=NO4)CC3)c(F)c2)C(=O)O1 (mixture of isomers) , reported MIC: 0.344 µM

MIC measured on CC(=O)NC[C@H]1CN(c2ccc(N3CCN(C(=O)C4CC(c5cccc([N+](=O)[O-])c5)=NO4)CC3)c(F)c2)C(=O)O1 (mixture of isomers) = 0.162 µM

Entry CC(=O)NC[C@H]1CN(c2ccc(N3CCN(C(=O)C4CC(c5ccc(F)c(F)c5)=NO4)CC3)c(F)c2)C(=O)O1 (mixture of isomers) , MIC reported as 0.349 µM

CN[C@H](CC(C)C)C(=O)N[C@H]1C(=O)N[C@@H](CC(N)=O)C(=O)N[C@H]2C(=O)N[C@H]3C(=O)N[C@H](C(=O)N[C@H](C(=O)O)c4cc(O)cc(O)c4-c4cc3ccc4O)[C@H](O)c3ccc(c(Cl)c3)Oc3cc2cc(c3O[C@@H]2O[C@H](CO)[C@@H](O)[C@H](O)[C@H]2O[C@H]2C[C@](C)(N)[C@H](O)[C@H](C)O2)Oc2ccc(cc2Cl)[C@H]1O yielded MIC of 0.128 µM

---

- Tested on: Staphylococcus aureus
- Experiment notes: Antibacterial activity against methicillin-resistant Staphylococcus aureus ATCC 70069 after 24 hrs
- Format: functional
- Test parameters: ATCC 70069, 24 h
Parameter measured: MIC (µM)
Give a bare numeral; the unit µM is implied.

Lab note: measured MIC of CC(=O)NC[C@H]1CN(c2ccc(N3CCN(C(=O)C4CC(c5ccc6c(c5)OCO6)=NO4)CC3)c(F)c2)C(=O)O1 (mixture of isomers) was 0.344

Reported MIC ( CC(=O)NC[C@H]1CN(c2ccc(N3CCN(C(=O)C4CC(c5cccc(C(F)(F)F)c5)=NO4)CC3)c(F)c2)C(=O)O1 (mixture of isomers) ) = 1.35

So for CC(=O)NC[C@H]1CN(c2ccc(N3CCN(C(=O)C4CC(c5ccc(F)c(F)c5)=NO4)CC3)c(F)c2)C(=O)O1 (mixture of isomers) , the logged MIC turned out to be 0.349

Form field MIC, entry CC(=O)NC[C@H]1CN(c2ccc(N3CCN(C(=O)C4CC(c5ccc(C)cc5)=NO4)CC3)c(F)c2)C(=O)O1 (mixture of isomers) : 1.49

Reported MIC for CC(=O)NC[C@H]1CN(c2ccc(N3CCN(C(=O)C4CC(c5cccs5)=NO4)CC3)c(F)c2)C(=O)O1 (mixture of isomers) was 24.3

MIC measured on CC(=O)NC[C@H]1CN(c2ccc(N3CCN(C(=O)C4CC(c5ccc(Cl)cc5)=NO4)CC3)c(F)c2)C(=O)O1 (mixture of isomers) = 0.35

---

- Tested on: Escherichia coli
- Experiment notes: Antibacterial activity against Escherichia coli ATCC 9637 after 24 hrs
- Assay type: functional, organism-based
Activity calls are given as the source filed them. The calls are words filed in the database; no cut-off is given here.
Parameter measured: Activity

Molecule: CC(=O)NC[C@H]1CN(c2ccc(N3CCN(C(=O)C4CC(c5ccccn5)=NO4)CC3)c(F)c2)C(=O)O1 (mixture of isomers)
Target: Escherichia coli
Observed: inactive

Molecule: CC(=O)NC[C@H]1CN(c2ccc(N3CCN(C(=O)C4CC(c5cccs5)=NO4)CC3)c(F)c2)C(=O)O1 (mixture of isomers)
Target: Escherichia coli
Observed: inactive

Molecule: CC(=O)NC[C@H]1CN(c2ccc(N3CCN(C(=O)C4CC(c5cccc(C(F)(F)F)c5)=NO4)CC3)c(F)c2)C(=O)O1 (mixture of isomers)
Target: Escherichia coli
Observed: inactive

---

- System: Staphylococcus aureus
- Experiment notes: Antibacterial activity against methicillin-resistant Staphylococcus aureus ATCC 70069 after 24 hrs
- Type: functional
- Test parameters: ATCC 70069, 24 h
Parameter measured: MIC
Please answer in the form of a number followed by its unit of measurement.

Measured MIC of CC(=O)NC[C@H]1CN(c2ccc(N3CCN(C(=O)C4CC(c5ccccn5)=NO4)CC3)c(F)c2)C(=O)O1 (mixture of isomers) : 1.53 µM

Summary for this compound, COc1ccc(C2=NOC(C(=O)N3CCN(c4ccc(N5C[C@H](CNC(C)=O)OC5=O)cc4F)CC3)C2)cc1O (mixture of isomers) : MIC is 0.703 µM

Looking up CC(=O)NC[C@H]1CN(c2ccc(N3CCN(C(=O)C4CC(c5ccc(F)cc5)=NO4)CC3)c(F)c2)C(=O)O1 (mixture of isomers) , I see its MIC listed as 0.74 µM

The recorded MIC for entry CC(=O)NC[C@H]1CN(c2ccc(N3CCOCC3)c(F)c2)C(=O)O1 [LINEZOLID] equals 4.63 µM

---

- System: Staphylococcus aureus
- Experiment notes: Antibacterial activity against […] Staphylococcus aureus ATCC 29213 after 24 hrs
- Assay type: functional
- Test parameters: ATCC 29213, 24 h
Parameter measured: log10 of MIC (log10 of the value in µM)
Form field - Quantity: MIC; Unit: µM; Scale: log10

// CC(=O)NC[C@H]1CN(c2ccc(N3CCN(C(=O)C4CC(c5cccc([N+](=O)[O-])c5)=NO4)CC3)c(F)c2)C(=O)O1 (mixture of isomers) : log10 of MIC value = -0.15

What the record says about CC(=O)NC[C@H]1CN(c2ccc(N3CCN(C(=O)C4CC(c5ccsc5)=NO4)CC3)c(F)c2)C(=O)O1 (mixture of isomers) : log10 of MIC is 1.39

Consider COc1ccc(C2=NOC(C(=O)N3CCN(c4ccc(N5C[C@H](CNC(C)=O)OC5=O)cc4F)CC3)C2)cc1O (mixture of isomers) . Its measured log10 of MIC is -0.15

Value of log10 of MIC reported for the molecule CN[C@H](CC(C)C)C(=O)N[C@H]1C(=O)N[C@@H](CC(N)=O)C(=O)N[C@H]2C(=O)N[C@H]3C(=O)N[C@H](C(=O)N[C@H](C(=O)O)c4cc(O)cc(O)c4-c4cc3ccc4O)[C@H](O)c3ccc(c(Cl)c3)Oc3cc2cc(c3O[C@@H]2O[C@H](CO)[C@@H](O)[C@H](O)[C@H]2O[C@H]2C[C@](C)(N)[C@H](O)[C@H](C)O2)Oc2ccc(cc2Cl)[C@H]1O [VANCOMYCIN] is 0.02

Measured log10 of MIC, CC(=O)NC[C@H]1CN(c2ccc(N3CCOCC3)c(F)c2)C(=O)O1 [LINEZOLID] : 0.97

Entry under test: CC(=O)NC[C@H]1CN(c2ccc(N3CCN(C(=O)C4CC(c5cccc(C(F)(F)F)c5)=NO4)CC3)c(F)c2)C(=O)O1 (mixture of isomers) . Its log10 of MIC was 0.43

Short answer for CC(=O)NC[C@H]1CN(c2ccc(N3CCN(C(=O)C4CC(c5ccc(Cl)c(Cl)c5)=NO4)CC3)c(F)c2)C(=O)O1 (mixture of isomers) : log10 of MIC was 0.43

Documented log10 of MIC of CC(=O)NC[C@H]1CN(c2ccc(N3CCN(C(=O)C4CC(c5ccc(C(F)(F)F)cc5)=NO4)CC3)c(F)c2)C(=O)O1 (mixture of isomers) : 0.43

Item: CC(=O)NC[C@H]1CN(c2ccc(N3CCN(C(=O)C4CC(c5ccc(F)cc5)=NO4)CC3)c(F)c2)C(=O)O1 (mixture of isomers) | log10 of MIC: -0.13

Short answer for CC(=O)NC[C@H]1CN(c2ccc(N3CCN(C(=O)C4CC(c5ccccn5)=NO4)CC3)c(F)c2)C(=O)O1 (mixture of isomers) : log10 of MIC was 0.18

The molecule listed as CC(=O)NC[C@H]1CN(c2ccc(N3CCN(C(=O)C4CC(c5ccc6c(c5)OCO6)=NO4)CC3)c(F)c2)C(=O)O1 (mixture of isomers) has a reported log10 of MIC of 0.45

For this molecule ( CC(=O)NC[C@H]1CN(c2ccc(N3CCN(C(=O)C4CC(c5ccco5)=NO4)CC3)c(F)c2)C(=O)O1 (mixture of isomers) ), measured log10 of MIC is 0.80

Short answer for CC(=O)NC[C@H]1CN(c2ccc(N3CCN(C(=O)C4CC(c5ccc(F)c(F)c5)=NO4)CC3)c(F)c2)C(=O)O1 (mixture of isomers) : log10 of MIC was -0.15

For reference, reported log10 of MIC for CC(=O)NC[C@H]1CN(c2ccc(N3CCN(C(=O)C4CC(c5ccc(Cl)cc5)=NO4)CC3)c(F)c2)C(=O)O1 (mixture of isomers) stands at 0.46

// log10 of MIC value for CC(=O)NC[C@H]1CN(c2ccc(N3CCN(C(=O)C4CC(c5ccccc5)=NO4)CC3)c(F)c2)C(=O)O1 (mixture of isomers) : 1.39

Lab note: measured log10 of MIC of CC(=O)NC[C@H]1CN(c2ccc(N3CCN(C(=O)C4CC(c5ccc(C)cc5)=NO4)CC3)c(F)c2)C(=O)O1 (mixture of isomers) was 0.47

Reported log10 of MIC of CC(=O)NC[C@H]1CN(c2ccc(N3CCN(C(=O)C4CC(c5cccs5)=NO4)CC3)c(F)c2)C(=O)O1 (mixture of isomers) : 1.39
